Values compiled from paper PMC5773536.

TESTED_ON: recombinant luminal domain of GmVSR (soybean vacuolar sorting receptor) (Glycine max (soybean))
TEST_DETAILS: SPR; GmVSR(LU) amine-coupled on a CM5 chip (1000-1200 RU), BIACORE2000; GST fusion proteins injected 180 s, eluted with salt buffer 180 s, 25 °C, 30 uL/min; control flow cell subtracted; three independent experiments
pKd: −log10 of the molar value.

BINDER: PQESQKRAVA [GST fused with the 10-residue C-terminal peptide of A1aB1b]
pKd: 7.01
